Test system: UV irradiation-induced skin oedema
PROTOCOL_DESCRIPTION: Murine model of UV irradiation-induced skin oedema
Type: in vivo, mice (Skh:hr-1 albino)
CONDITION: 48 hrs post-irradiation; topical 0.2 ml of 20 μM at 30 min, 2 h, 4 h
OUTCOME_MEASURE: Increase in skin thickness (mean ± SD, ×0.01 mm)
Provide only the numeric value, understood in ×0.01 mm.

Solved entries:
Cc1c(O)ccc2c1OCC(c1ccc(O)cc1)C2O (single isomer, unassigned) [Compound 3a]; 69
O=C1c2cc(Cl)c(O)cc2OCC1c1ccc(O)cc1 (centres unmarked); 145
Oc1ccc(C2COc3c(ccc(O)c3O)C2O)cc1 (centres unmarked); 105

Data request: Need Increase in skin thickness (mean ± SD, ×0.01 mm) of Cc1c(O)ccc2c1OCC(c1ccc(O)cc1)C2O (single isomer, unassigned) [Compound 3b] , thanks.
Data returned: 113

Data request: Need Increase in skin thickness (mean ± SD, ×0.01 mm) of O=C1c2ccc(O)c(Br)c2OCC1c1ccc(O)cc1 (centres unmarked) , thanks.
Data returned: 91
